B1: TPR t1 (parent)
chain: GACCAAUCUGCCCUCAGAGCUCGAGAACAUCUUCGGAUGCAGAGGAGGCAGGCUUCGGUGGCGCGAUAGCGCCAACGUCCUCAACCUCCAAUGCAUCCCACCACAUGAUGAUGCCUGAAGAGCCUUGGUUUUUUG

# Variants of: B1
# assay-details: polymerase ribozyme fitness, log enrichment relative to wild type (log ratio); higher = more active; in vitro selection for triplet polymerase activity
Entry flag: t if polymerase ribozyme fitness (log ratio) reaches -4; f if it does not.

INSERT INTO assay_data (seq, class_assignment) VALUES
  ('GACCACUCUACCAUCAGAGCUCGAGAACAUCUUCGGAUGCAGAGGAGGCAGGCUUCGGUGGCGCGAUAGCGCCAGCGUCCUCAACCUCCAAUGCAUCCCACCACAUGAUGAUGCCUGAAGAGCCGUGGUUUUUUG [A6C G10A C13A A75G U125G]', 't'),
  ('GACCAAUCUGCCCUCAGAGCUCGAGAACAUCUUCGGAUGCAGAGGAGGCAGGCUUCGGUGGCGCGAUAGAGCCAACGUCCACAACCUCCAAUACAUCCCACCACAUGAUGAUGCCUGAAGAGCCUUGGUUUUUUG [C70A U81A G93A]', 't'),
  ('GACCAAUCUGCCCUCAGAGCUCGAGAACAUCUUCGGAUGCAGAGGAGGCAGGCUCCGGUGGCGCGAUAGCGCCAACGUCCUCAACCUCCAAUGCAUCCCACCACAUGAUGAUGCCUGAAGGGCCUUGGUUUUUUG [U55C A121G]', 't'),
  ('GACCAAUCUGCCCUCAGAGCUCGAGAACAUCUUCGGAUGCAGAGGAGGCAGGCUUCGGUGGCGCGAUAGCGCCAACGUCCUAAACCUCCAAUGCAUCCCACCACAUGAUGAUGCAUGAAGAGCCUUGGUUUUUUG [C82A C115A]', 't'),
  ('GACCAAUCUACCCUCAGAGCUCGAGAAUAUCUUCGGAUGCAGAGGUGGCAGGCUUCGGUGGCGCGAUAGCGCCAACGUCCUCCCCCUCCAAUGCAUCCCACCACAUGAUGAUGCCUGAAGAGCAUUGGUUUUUUG [G10A C28U A46U A83C A84C C124A]', 't'),
  ('GACCAAUCUGCGCUCAGAGCUCGAGAACAUCUUCGGAUGCAGAGGAGGCAGGCUUCGGUGGCGCGAUAGCGCCAACGUCCUCAACCUGCAAUGCAUCCCACCACAUGAUGAUGCCUGAAGAGCCUUGGUUUUUUG [C12G C88G]', 't'),
  ('GACCAAUCUGCCCUCAGAGCUCGAGAACAUCUUCGGAUGCAGAGGAGGCAGGCUUCGGUGGCGCGAUAGCGCCAACGUCCUCAACCUCCAAUGCAUCCCACCACAUGAUGAUGCCUGAACAGCAUUGGUUUUUUG [G120C C124A]', 't'),
  ('GACCAAUCUGCCCUCAGAGCUCGAGAACAUCUUCGGAUGCAGAGGAGGCAGGCUUCGGUCGCGCGAUAGCGCCAACGUCCUCAAACUCCAAUGCAUCCCACCACAUGAUGAUGCCUGAAGAGCCUUGGUUUUUUG [G60C C85A]', 't'),
  ('GACCAUUCUGCCCUGAGAGCUCGAGAACAUCUACGGAUGCAGAGGAGGCAGGCUUCGGUGGCACGAUAGCGCCAACGUCCUCAACCUCCAAUACAUCCCACCACAUGAUGAUUCCUGAAGAGCCUUGGUUUUUUG [A6U C15G U33A G63A G93A G113U]', 'f'),
  ('GACCAAACUCCCCUCAGAGCACGAGAACAUCUUCGGAUGCAGAGGAGGCAGGCUUUGGUGGCGCGAUAGCGCCAACGUCCUCAACCUCCAAUGCAUCCCACCACAUGAUGAUGCCUGAAGAGCCUUGGUUUUUUG [U7A G10C U21A C56U]', 't'),
  ('GACCAAUCUGCCCUAAGAGCUCGAGAACAUCUUCGAAUGCAGAGGAGGCCGGCUUCGGUGGCGCAAUAUCGCCAACGUCCUCAACCUCCAAUGCAUCCCACCACAUGAUGAUGCCUGAAGAGCCUUGGUUUUUUG [C15A G36A A50C G65A G69U]', 'f'),
  ('GACCAAUCUGCCCUCAGAGCUCGAGAACAUCUUCGGAUGCAGAGGAGGCAGGCUUCGGUGGCGCGAUAGCACCAACGUCCUCAAGCUCCAAUGCAUCCCACCACAUGAUGAUGCCUGAAGAGCCUCGGUUUUUUG [G71A C85G U126C]', 't'),
  ('GACCAAUCUGCCCUCAGAGCUGGAGAACAUCUUCGGAUGCAGAGGAGGCAGGCUUCGGUGGCGCGAUACCGCCAACUUCCUCAACCUCCAAUGCAUCCCAGCACAUGAUGAUGCUUGAAGAGCCUUGGUUUUUUG [C22G G69C G77U C101G C115U]', 'f'),
  ('GACCAAUCUGCGCUCAGAGCUUGAGAACAUCGUCGGAUGCAGAGGAGGCAGGCUUCGGUGGCGCGAUAUCGGCAACGUCCUCAACCUCCAAUGCAUCCCACAACAUGAUGUUGCCUGAAGAUCCUUGGUUUUUUG [C12G C22U U32G G69U C72G C102A A111U G122U]', 'f'),
  ('GACCAAUCUGCCCUCAGAGCUCGAGAACAUCUUCGGAUGCAGAGGAAGCAGGCUUCGGUGGGGCGAUAGCGUCAACGUCCUCAACCUCCAAUGCAUCCCACCACAUGAUGAUGCCUGAAGAGCCUUGGUUUUUUG [G47A C62G C72U]', 'f'),
  ('GCCCAAUCUGCCCUCAGAGCUCGAGAACAUCUUCGGAUGCAGAGGAGGCAGGCUUCGGUGGCGCGAUAGCGCCAACGUCCUCAACCUCCAAUGCAUCCCACCACAUGAUCAUGCCUGAAGAGCCUUGGUUUUUUG [A2C G110C]', 'f'),
  ('GACCACUCUGCCCUCAGAGCUCGAGAACAUCUUCGUAUGCAGAGGAGGCAAGCUUCGGUGGCGCGAUAGCGCCAACGUCCUCAACCUCCAAUGCAUCCCACCACAUGACGAUGCUUGAAGAGCCUUGGUUUUUUG [A6C G36U G51A U109C C115U]', 'f'),
  ('GACCAAUUUGCCCUCAGAGCUCGAGAACAUCUUCGGAUGCAGAGGAGGCAGGCUUUGGUGGCGCGAUAGCGCCAACGUCCUAAACCUCCAAUGCAUACCACCACAUGAUGAUGCCUCAAGAGCCUUGGUUUUUUG [C8U C56U C82A C97A G117C]', 'f'),
  ('GACCAAUCUGCCCUCAGAGCUCGAGAACAUCUUCGGAUGCAGAGGAGGCAGGCUUCGGUGGCUCGAUAGCGCCAACGUCCUCAACCUCCAAUGAAUCCCACCACAUGAUGAUGCCUGAAGCGCCUUGGUUUUUUG [G63U C94A A121C]', 't'),
  ('GACCAAUCUGCCCUCAGAGCUGGAGCACAUCUUCGGAUGCACAGGAGGCAGGCUUCGGUGGCGCGAUAGCGCCAACGUCCUCAUCCUCCAAUGCAUCCCACCACAUGAUGAUGCCUGAAGAGCCUUGGUUUUUUG [C22G A26C G42C A84U]', 'f'),
  ('GACCAAUCUGCCCUCAGAGCUCGAGAACAUCUUCGGAUGCAGAGGAGGCAGGCUUCGGUGGCGCGAUAGAGCCAACGUCCUCAACCUCCAAUGCAUCCCACUACAUGAUGACGCCUGAAGAGCCUUGGUUUUUUG [C70A C102U U112C]', 't');
